B1: EEHEE_rd4_0647 (parent)
chain: MQVTWGNVTVTFSNPEEAKKYAEKVARKLGGQVELHNGQFRIK

# Variants of: B1
# Assay Text: folding stability dG (cDNA display proteolysis); higher = more stable
# Condition Set: PBS, room temperature
Reported Endpoint: folding stability dG (kcal/mol)
# unit: kcal/mol | format: bare number

Q) What value of folding stability dG has been recorded for this entry: N14P
A) 0.65

Q) Another variant to check: L29R
A) 1.62

Q) Another variant to check: S13F
A) 2.49
